System: SEM cells
Test Description: cell viability relative to DMSO control; higher = less cytotoxic
Cond: HPLM + 10% dialyzed FBS; 48 h; 0.0211 µM
# maps each entry to its cell viability
Measurement Type: cell viability (%)

| Molecule | Test Target | Measurement Type | Experimental Value |
| --- | --- | --- | --- |
| O=C1\C=C/C[C@@H]2[C@H]3CCCN4CCC[C@@H](CN12)[C@@H]34 | SEM cells | cell viability | 112 |
| CC(C)(C)C(=O)OCOP(=O)(COCCn1cnc2c(N)ncnc21)OCOC(=O)C(C)(C)C | SEM cells | cell viability | 101 |
| C=CC1=C(C(=O)O)N2C(=O)[C@@H](NC(=O)/C(=N\O)c3csc(N)n3)[C@H]2SC1 | SEM cells | cell viability | 86.1 |
| CC(=O)CC(C1=CC=CC=C1)C/2=C(O)/C3=CC=CC=C3OC2=O (centres undefined) | SEM cells | cell viability | 71.7 |
| CCOc1cc(N)c(Cl)cc1C(=O)NCC1CN(Cc2ccc(F)cc2)CCO1 (centres undefined) | SEM cells | cell viability | 100 |
| COc1cc(C(C)=O)ccc1OCCCN1CCC(c2noc3cc(F)ccc23)CC1 | SEM cells | cell viability | 95 |
| O=C(/C=C/c1c(C(=O)[O-])[nH]c2cc(Cl)cc(Cl)c12)Nc1ccccc1 | SEM cells | cell viability | 122 |
| CCn1c(-c2nonc2N)nc2cncc(CNC3CCNCC3)c21 | SEM cells | cell viability | 134 |
| NC(CO)(CO)CCc1ccc(Sc2cccc(OCc3ccccc3)c2)cc1Cl | SEM cells | cell viability | 56.6 |
| OCc1ccc(-c2nn(Cc3ccccc3)c3ccccc23)o1 | SEM cells | cell viability | 111 |
| C1CCC(C(CC2CCCCN2)C2CCCCC2)CC1 (centres undefined) | SEM cells | cell viability | 98.3 |
| [NH2][Pt]([NH2])([Cl])[Cl] | SEM cells | cell viability | 95.2 |
| CCCCNc1cc(C(=O)O)cc([S+](N)(=O)[O-])c1Oc1ccccc1 | SEM cells | cell viability | 101 |
| CC(C)(C)C(=O)Oc1ccc([S+](=O)([O-])Nc2ccccc2C(=O)NCC(=O)O)cc1 | SEM cells | cell viability | 109 |
| O=C1Nc2ccc(Cl)cc2[C@@](C#CC2CC2)(C(F)(F)F)O1 | SEM cells | cell viability | 95 |
| Oc1ccc(/C=C/c2cc(O)cc(O)c2)cc1 | SEM cells | cell viability | 104 |
| CC(=O)O[C@@]1(CC[C@H]2[C@@H]3\C=C(C)/C4=C/C(=O)CC[C@]4(C)[C@H]3CC[C@]12C)C(C)=O | SEM cells | cell viability | 82.7 |
| C\C1=C\N([C@H]2C[C@H](N=[N+]=[N-])[C@@H](CO)O2)C(=O)NC1=O | SEM cells | cell viability | 71 |
| CC1(C)C(=O)N(CCN2CCC(C(=O)c3ccc(F)cc3)CC2)c2ccccc21 | SEM cells | cell viability | 111 |
| OC[C@H](Cc1ccccc1)Nc1nc(Oc2ccc3c(c2)CCC3)nc2c1ncn2Cc1ccc(-c2ccccc2)cc1 | SEM cells | cell viability | 107 |
| COc1cc2nc(N3CCCN(C)CC3)nc(NC3CCN(Cc4ccccc4)CC3)c2cc1OC | SEM cells | cell viability | 111 |
| CCc1cccc(CC)c1NC(=O)N1Cc2[nH]nc(NC(=O)c3ccc(N4CCN(C)CC4)cc3)c2C1 | SEM cells | cell viability | 128 |
| CC(C)[C@@H](C[S+](=O)([O-])C(C)C)N1C(=O)[C@@](C)(CC(=O)O)C[C@H](c2cccc(Cl)c2)[C@H]1c1ccc(Cl)cc1 | SEM cells | cell viability | 117 |
| CC[C@H]1/C=C\C=C/C[C@@H](C)[C@H](O)[C@@](C)(O)C(=O)[C@@H](C)[C@H](O)[C@@H](C)C(=O)[C@@H](C)[C@H](O)[C@@H](C)/C=C/C(=O)O[C@@H]2[C@H](C)[C@H](CC1)O[C@]1(CC[C@H](C)[C@H](C[C@@H](C)O)O1)[C@H]2C | SEM cells | cell viability | 84.3 |
| CCN(CC)CCCCNc1nc2cc(Cl)c(Cl)cc2nc1-c1ccc(-c2cccs2)s1 | SEM cells | cell viability | 121 |
| CC1=CC=CC=C1CN2C(=O)C/3=C(/CCN(CC4=CC=CC=C4)C3)N\5CC\N=C25 | SEM cells | cell viability | 115 |
| Cn1c(Nc2ccc(C(F)(F)F)cc2)nc2cc(Oc3ccnc(-c4nc(C(F)(F)F)c[nH]4)c3)ccc21 | SEM cells | cell viability | 96.8 |
| CC(=O)C\1=C(/C)C2=CN=C(NC3=CC=C(C=N3)N4CCNCC4)N=C2N(C5CCCC5)C1=O | SEM cells | cell viability | 125 |
| CC(=O)NC(CS)C(=O)O (centres undefined) | SEM cells | cell viability | 63.5 |

====

# maps each entry to its cell viability
System: SEM cells
Test Description: cell viability relative to DMSO control; higher = less cytotoxic
Cond: RPMI 5 mM glucose + 10% FBS; 48 h; 46.1 µM
Measurement Type: cell viability (%)

| Compound | Unit Spec | Experimental Value |
| --- | --- | --- |
| O=C(NC[C@H](O)CN1CCc2ccccc2C1)c1cc(NC2COC2)ncn1 | % | 47.2 |
| OCc1ccc(-c2nn(Cc3ccccc3)c3ccccc23)o1 | % | 11.2 |
| COc1cc2c(Oc3ccc(NC(=O)C4(C(=O)Nc5ccc(F)cc5)CC4)cc3F)ccnc2cc1OCCCN1CCOCC1 | % | 3.41 |
| NC1=NC=C(C=C1)C2=CC=C3N=CC\4=C(N(C(=O)\C=C4)C5=CC(=CC=C5)C(F)(F)F)C3=C2 | % | 7.9 |
| CCc1c(C(=O)C(N)=O)c2c(OCC(=O)O)cccc2n1Cc1ccccc1 | % | 82.6 |
| CC1(C)OC2CC3C4CC(F)C/5=C/C(=O)/C=C\C5(C)C4C(O)CC3(C)[C@@]2(O1)C(=O)CO (stereo not given in full) | % | 60.3 |
| CC(C)n1nc(-c2ccc3oc(N)nc3c2)c2c(N)ncnc21 | % | 3.72 |
| C\C1=C\C(=O)C2=C(C=CC=C2)C1=O | % | 59.9 |
| O=C(CO)N1CCC(c2n[nH]c(-c3ccc(Cl)cc3)c2-c2ccncn2)CC1 | % | 16 |
| CC(=O)N1CCN(c2ccc(OC[C@H]3CO[C@](Cn4ccnc4)(c4ccc(Cl)cc4Cl)O3)cc2)CC1 | % | 48.5 |
| CN(C)C(=O)c1ccc([S+](=O)([O-])c2ccc(NC(=O)[C@@](C)(O)C(F)(F)F)c(Cl)c2)cc1 | % | 4.66 |
| CCOC(=O)[C@H](CCc1ccccc1)N[C@@H](C)C(=O)N1CCC[C@H]1C(=O)O | % | 94.8 |
| O=C(/C=C/c1cccc([S+](=O)([O-])Nc2ccccc2)c1)NO | % | 8.83 |
| COc1cc(O)c2c(c1)C1OC1C[C@H](O)[C@H](O)C(=O)/C=C\C[C@H](C)OC2=O (stereo not given in full) | % | 4.26 |
| NC(=O)c1ncn([C@@H]2O[C@H](CO)[C@@H](O)[C@H]2O)n1 | % | 76.9 |
| CCOC(=O)N1CCN(/[N+]([O-])=N/Oc2ccc([N+](=O)[O-])cc2[N+](=O)[O-])CC1 | % | 8.13 |
| CCC[C@H](N[C@@H](C)C(=O)N1[C@H](C(=O)O)C[C@@H]2CCCC[C@@H]21)C(=O)OCC | % | 102 |
| [NH2][Pt]([NH2])([Cl])[Cl] | % | 52.4 |
| C[S+](=O)([O-])N(Cc1ccco1)CC(O)Cn1c2ccccc2c2ccccc21 (stereo not given) | % | 10.7 |
| CC(C)Nc1cc(C(F)(F)F)cc2nc(NC(=O)c3cccnc3)nn12 | % | 2.38 |

====

# maps each entry to its cell viability
Test system: NOMO1
Test Description: cell viability relative to DMSO control; higher = less cytotoxic
Cond: HPLM + 10% dialyzed FBS; 48 h; 15.4 µM
Measurement Type: cell viability (%)

| Compound | Experimental Value |
| --- | --- |
| CC1(C)OC2CC3C4CC(F)C/5=C/C(=O)/C=C\C5(C)C4C(O)CC3(C)[C@@]2(O1)C(=O)CO (stereo not given in full) | 124 |
| O=C(NC[C@H](O)CN1CCc2ccccc2C1)c1cc(NC2COC2)ncn1 | 56.1 |
| O=C(CO)N1CCC(c2n[nH]c(-c3ccc(Cl)cc3)c2-c2ccncn2)CC1 | 34.6 |
| Clc1cc(Cl)cc(CNc2ncncc2-c2ccc3c(c2)OCO3)c1 | 82.7 |
| CCc1c(C(=O)C(N)=O)c2c(OCC(=O)O)cccc2n1Cc1ccccc1 | 90.8 |
